- target: T1, Tumor necrosis factor α (UniProt P01375 77-233)
- T1 construct: also called TNFα; TNF
- T1 sequence (P01375 77-233 limits assumed): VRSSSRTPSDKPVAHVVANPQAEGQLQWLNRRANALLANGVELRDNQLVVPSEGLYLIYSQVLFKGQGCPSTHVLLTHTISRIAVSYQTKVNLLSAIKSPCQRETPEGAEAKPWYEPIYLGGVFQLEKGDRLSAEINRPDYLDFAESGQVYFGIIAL
- test method notes: BioVeris ECL competition with a labeled competitor; legend: ++ = IC50 about 10-50 µM
quantity: IC50

## Task Any idea what its IC50 is? The binder is BBIt-TNFα-T1-A13I-S25R-M27A-L29P-S31A-F50K-V52T (designed binder, also called BBIt-TNF-T1) DPDDESSKPCCDQCICTKSNPPQCRCRDARPNACHSACKSCACRYWQDIPCKCTDITDFCYEPCKPSE
## Result 10 to 50 µM
